The values you see were collected from ChEMBL document CHEMBL4513216.

Assay: Toxicity liver stage against HepG2, at 10uM
Format: cell-based
Parameters: test concentration 10 uM, cell line HepG2-A16-CD81EGFP
Conditions: human, HepG2-A16-CD81EGFP cells; read-out: INHIBITION
reported_metric: cytotoxicity at 10 µM (%)
I only need the number, in %, no unit after it.

1) CCN(CC)CCn1cc(NC(=O)c2ccccc2OC)cn1: 7.04
2) Cc1ccc(Oc2ncccc2CNC2CCCCC2)cn1: -8.59
3) O=C(c1cncc(Br)c1)N1CCCc2ccc(F)cc21: -1.01
4) COc1ccc(Br)cc1CCC(=O)N1CCC(O)CC1: -1.96
5) COc1ccccc1CN(C)c1nccc(-c2cn(C)nc2C)n1: 53.8

-- ask Given the compound Cc1ccc(F)cc1-n1c(CN(C)S(C)(=O)=O)n[nH]c1=O , write its reported cytotoxicity at 10 µM.
-- reply 2.19

* * *

Assay: Toxicity liver stage against HepG2, at 10uM
Format: cell-based
Parameters: test concentration 10 uM, cell line HepG2-A16-CD81EGFP
Conditions: human, HepG2-A16-CD81EGFP cells; read-out: INHIBITION
reported_metric: cytotoxicity at 10 µM (%)
Entry rule: numbers only, all in %.

Known results for compounds:
1) Cn1cnnc1-c1cncc(NCc2ccccc2Br)c1: 6.53
2) CO[C@H]1CCN(Cc2ccoc2)C[C@@H]1Cc1ccccc1: -11.9
3) Cc1ccc(C2NC(=O)c3cc(C(C)C)sc3N2)cc1 (stereo unspecified): 7.96
4) CN(Cc1nc(CC2CC2)no1)CC1COc2ccccc2O1 (stereo unspecified): -3.89
5) CNS(=O)(=O)c1ccsc1C(=O)OC: 7.54
6) COCc1ccccc1C(=O)N1CCN(C2=NCC(C)(C)S2)CC1: 6.11

Now turn to the next compound.
-- ask Output measured cytotoxicity at 10 µM for this item: CCNC(=O)C1(CC2CC(c3ccccc3OC)=NO2)CCOCC1 (stereo unspecified)
-- reply -26.8

* * *

Consider the following compounds and their measured cytotoxicity at 10 µM readings.
Test: Toxicity liver stage against HepG2, at 10uM
Format: cell-based
Set-up: test concentration 10 uM, cell line HepG2-A16-CD81EGFP
Conditions: human, HepG2-A16-CD81EGFP cells; read-out: INHIBITION
Expressed in %, but write only the number.

1) Cc1cc(C)n(CC(=O)NC2CCCCNC2=O)n1 (centres undefined): -14.7

-- ask Give the measured cytotoxicity at 10 µM for CCN(Cc1cnn(C)c1)C[C@H]1CC[C@@H](Cc2ccc(OC)nc2)O1
-- reply 1.94

-- ask Give the value of cytotoxicity at 10 µM reported for the following: COc1cccc(CN(C)CC2=Nc3ccccc3S(=O)(=O)N2)c1
-- reply 36.4

-- ask Tell us which cytotoxicity at 10 µM value is on record for Cc1nc(CN2CCC(N(C)Cc3noc(C4CC4)n3)C2)oc1C (centres undefined)
-- reply -11.1

-- ask Supply measured cytotoxicity at 10 µM of CN(Cc1cn2ccccc2c1C#N)C1CCCN(c2cccnn2)C1 (centres undefined) in your reply.
-- reply -11.9

-- ask Query cytotoxicity at 10 µM for Cc1nn(C)c(C)c1-c1cncc(C2CCN(S(C)(=O)=O)CC2)n1
-- reply 8.88

-- ask Let me know recorded cytotoxicity at 10 µM for CCNc1cc2c(nn1)CCN(C(=O)c1cc3nc(C)ccc3o1)C2 , thanks.
-- reply -3.85

-- ask Identify the reported cytotoxicity at 10 µM for the following entry. CCCNC(=O)CCNC(=O)Cc1nc(-c2ccco2)oc1C
-- reply 23.7

-- ask Dear colleague, please send me the reported cytotoxicity at 10 µM for CCN(C)S(=O)(=O)N1CCCC(CO)(CC=C(C)C)C1 (centres undefined) when you can.
-- reply -3.41

-- ask Please indicate cytotoxicity at 10 µM recorded for COc1cc(N2CCCC(c3nccn3Cc3ccncc3)C2)ncn1 (centres undefined)
-- reply -6.82

-- ask Report cytotoxicity at 10 µM for Cc1cc2c(cc1NC(=O)NC(C)(C)C)OCO2
-- reply -1.47

-- ask Give recorded cytotoxicity at 10 µM. CCCn1ncc(C(=O)NC(C)c2c(C)nn(CC)c2C)c1C (centres undefined)
-- reply 9.91

-- ask Give a short answer stating reported cytotoxicity at 10 µM for COc1ccc(C(C)N2CCC(C(=O)N(C)C)CC2)cc1Cl (centres undefined) .
-- reply -52.5

-- ask In one line, give reported cytotoxicity at 10 µM of the entry COCCN1CCCN(C(=O)c2oc(C)nc2C)CC1 .
-- reply 2.04

-- ask Return cytotoxicity at 10 µM for the following compound: CC(C)c1nn(C)c(N(C)C)c1CNCc1cccc2c1OCO2
-- reply -4.66

-- ask Supply cytotoxicity at 10 µM value. Item: Cc1cc(C)c2nc(CN3CCOC(CCO)C3)cc(O)c2c1 (centres undefined)
-- reply -9.26

-- ask Report cytotoxicity at 10 µM for Clc1ccccc1C1(c2ccnc(-c3ncccn3)n2)CCNCC1
-- reply -6.28

* * *

Test: Toxicity liver stage against HepG2, at 10uM
Type: cell-based
Parameters: test concentration 10 uM, cell line HepG2-A16-CD81EGFP
Settings: human, HepG2-A16-CD81EGFP cells; read-out: INHIBITION
List of cytotoxicity at 10 µM values.
I only need the number, in %, no unit after it.

-- ask Give the reported cytotoxicity at 10 µM for this compound. CCN(CC)C(=O)CSc1ncc[nH]1
-- reply -9.94

-- ask Return cytotoxicity at 10 µM (reported value) for this compound: Cc1n[nH]c(C2CN(C(=O)CCc3ccco3)CCO2)n1 (configuration not stated)
-- reply -1.95

-- ask Give reported cytotoxicity at 10 µM value for CN(Cc1nnc2ccccn12)C(=O)NC1CCCCC1
-- reply -5.97

-- ask Provide cytotoxicity at 10 µM value for the following compound: CCCS(=O)(=O)NCCc1ncc(CC)s1
-- reply -1.56

-- ask Please give the documented cytotoxicity at 10 µM of O=C(O)CCc1nc2nccc(-c3ccc(F)cc3)n2n1
-- reply -9.24

-- ask Give a short answer stating reported cytotoxicity at 10 µM for CSCC(=O)N(C)Cc1ccccc1 .
-- reply -2.34

-- ask Identify measured cytotoxicity at 10 µM associated with CC(C)c1ccc(OCCNC(=O)N2CCS(=O)(=O)CC2)cc1
-- reply -5.54

* * *

Assay: Toxicity liver stage against HepG2, at 10uM
Assay type: cell-based
Set-up: test concentration 10 uM, cell line HepG2-A16-CD81EGFP
Settings: human, HepG2-A16-CD81EGFP cells; read-out: INHIBITION
This section presents molecules with their documented cytotoxicity at 10 µM values.
Give a bare numeral; the unit % is implied.

These solved cases illustrate the format of a correct answer.
1. CCCN1CCC(N(Cc2ncc(C)o2)C(C)=O)C1 (configuration not stated): -13.1
2. Cc1cnn(CC2CCCN2C(=O)c2ccc3cc[nH]c3c2)c1 (configuration not stated): 0.409
3. CSc1ccc(CNC(c2ccccc2F)c2nccn2C)cc1 (configuration not stated): 1.75

--- query ---
-- ask Respond only with cytotoxicity at 10 µM recorded for O=C(c1ccc(F)c(Br)c1)N1CCCN2CCCC2C1 (configuration not stated)
-- reply -0.746

* * *

Test: Toxicity liver stage against HepG2, at 10uM
Format: cell-based
Design: test concentration 10 uM, cell line HepG2-A16-CD81EGFP
Conditions: human, HepG2-A16-CD81EGFP cells; read-out: INHIBITION
reported_metric: cytotoxicity at 10 µM (%)
Provide the reading as a plain figure in %.

As a guide, the following entries are already answered.
1) CCC1(O)CCCN(c2nc(C(C)(C)C)nc3c2cnn3C)C1 (stereo unspecified): -52.9
2) O=C(NCc1ccccn1)[C@@H]1COC[C@H]2CN(c3ncccn3)C[C@H]21: 7.31
3) O=C(CCc1c(F)cccc1F)N1CCCCC1Cn1cccn1 (stereo unspecified): -11.1
4) Cc1ccc(N(C)[C@@H]2CC[C@@H]3CN(C(=O)C4CCOCC4)C[C@@H]32)nn1: -4.43
5) CCn1cc(S(=O)(=O)N2CCCSc3ccccc32)cn1: 9.25
6) O=C(NCC1CC1)C1CCCN(c2cccc(C(F)(F)F)n2)C1 (stereo unspecified): 8.21
7) OC(CN(Cc1ccccc1)Cc1cscn1)c1ccco1 (stereo unspecified): 5.04
8) O=C([C@@H]1CCO[C@@H]2CCN(Cc3ccco3)C[C@H]21)N1CCCCO1: 9.76

-- ask State its cytotoxicity at 10 µM: Cc1noc(CN(C)Cc2cnc(N3CCOCC3)nc2)n1
-- reply -14

-- ask Indicate the recorded cytotoxicity at 10 µM value for this compound: CC(c1nc(C2CC2)no1)N1CCc2c(ncn2C)C1 (stereo unspecified)
-- reply 1.09

-- ask Return reported cytotoxicity at 10 µM. Input compound: Cc1cnn(CC2CCCCN2CCC(=O)Nc2cc(C)on2)c1 (stereo unspecified)
-- reply -0.674

-- ask Name the recorded cytotoxicity at 10 µM of the compound listed here: CN1CCCC(c2ccnc(C(=O)NC3CC3)c2)C1 (stereo unspecified)
-- reply -29.5

-- ask // Input: CCn1nnnc1-c1cccc(NC(=O)CCOC(C)C)c1 . Output its cytotoxicity at 10 µM only.
-- reply -9.8

-- ask Report measured cytotoxicity at 10 µM; entry is Cc1cc(C(=O)N(CC(C)C)CC(O)c2ccc(F)cc2)[nH]n1 (stereo unspecified)
-- reply -10.2

-- ask Input CNc1cc(C2CN(Cc3coc(C)n3)CCO2)nc(C)n1 (stereo unspecified) , output reported cytotoxicity at 10 µM.
-- reply -11.1

-- ask Give cytotoxicity at 10 µM for Cc1c(CC(=O)N2CCN(C(C)C)CC2)nnn1-c1ccccc1
-- reply -3.64

-- ask Please indicate cytotoxicity at 10 µM recorded for Cc1ncc(CNC(CCO)C2CCCCC2)s1 (stereo unspecified)
-- reply -48.7

-- ask Indicate the recorded cytotoxicity at 10 µM value for this compound: CC(=O)N(Cc1noc(C)n1)C1CCN(Cc2ccc(C#N)cc2)C1 (stereo unspecified)
-- reply -3.66

-- ask Quick one: give measured cytotoxicity at 10 µM for CCc1nccn1C1CCCN(C(=O)c2cc[nH]n2)C1 (stereo unspecified)
-- reply 4.54

-- ask Return value of cytotoxicity at 10 µM for input O=C1CN(CC2CC2)Cc2nc(NCCc3ccccn3)sc21 , no commentary.
-- reply -12.3

-- ask For Cc1c(C(=O)N2CCSCC2)sc2nc(C(F)(F)F)ccc12 , write its cytotoxicity at 10 µM.
-- reply -8.58

-- ask Return cytotoxicity at 10 µM for the following compound: O=C(NC1CC1)c1cc(C(F)(F)F)cc(C(=O)NC2CC2)n1
-- reply 9.97

-- ask Determine from records and report cytotoxicity at 10 µM for Cc1nc(N2CCOCC2)nc2c1CCN(C(=O)C1CCCCC1)CC2
-- reply -0.152

-- ask Report cytotoxicity at 10 µM, nothing else, for this compound: CC(C)c1nccn1Cc1cc(C(=O)NCC(C)n2ccnc2)n[nH]1 (stereo unspecified)
-- reply -0.419

-- ask Quickly give me recorded cytotoxicity at 10 µM for CCCS(=O)(=O)N1CCOC2(COCCN(C(C)=O)C2)C1 (stereo unspecified)
-- reply 19.9

-- ask Please report cytotoxicity at 10 µM for the following compound: Cc1cnc(C(=O)N2CCC3(CCCN(c4nncs4)C3)C2)cn1 (stereo unspecified)
-- reply -103

-- ask Supply measured cytotoxicity at 10 µM of Cc1cnc(N2CCC3(CCCN(c4ncc(F)cn4)C3)C2)nc1 (stereo unspecified) in your reply.
-- reply -124

-- ask Give the reported value of cytotoxicity at 10 µM for this record: CCN(CC)S(=O)(=O)NC(=O)c1cc(C)n(-c2ccccc2)n1
-- reply -9.68

-- ask Give a short answer stating reported cytotoxicity at 10 µM for O=c1[nH]c2nc(NCC3CCCO3)ncc2c(=O)n1-c1cccc(F)c1 (stereo unspecified) .
-- reply -9.24

-- ask // Input: CC(=O)N1CC[C@H]2OCC[C@@H](C(=O)NCc3ccco3)[C@H]2C1 . Output its cytotoxicity at 10 µM only.
-- reply -81.5
